TEST SYSTEM: CDK13/Cyclin K (Homo sapiens)
Sequence (Q14004 whole entry): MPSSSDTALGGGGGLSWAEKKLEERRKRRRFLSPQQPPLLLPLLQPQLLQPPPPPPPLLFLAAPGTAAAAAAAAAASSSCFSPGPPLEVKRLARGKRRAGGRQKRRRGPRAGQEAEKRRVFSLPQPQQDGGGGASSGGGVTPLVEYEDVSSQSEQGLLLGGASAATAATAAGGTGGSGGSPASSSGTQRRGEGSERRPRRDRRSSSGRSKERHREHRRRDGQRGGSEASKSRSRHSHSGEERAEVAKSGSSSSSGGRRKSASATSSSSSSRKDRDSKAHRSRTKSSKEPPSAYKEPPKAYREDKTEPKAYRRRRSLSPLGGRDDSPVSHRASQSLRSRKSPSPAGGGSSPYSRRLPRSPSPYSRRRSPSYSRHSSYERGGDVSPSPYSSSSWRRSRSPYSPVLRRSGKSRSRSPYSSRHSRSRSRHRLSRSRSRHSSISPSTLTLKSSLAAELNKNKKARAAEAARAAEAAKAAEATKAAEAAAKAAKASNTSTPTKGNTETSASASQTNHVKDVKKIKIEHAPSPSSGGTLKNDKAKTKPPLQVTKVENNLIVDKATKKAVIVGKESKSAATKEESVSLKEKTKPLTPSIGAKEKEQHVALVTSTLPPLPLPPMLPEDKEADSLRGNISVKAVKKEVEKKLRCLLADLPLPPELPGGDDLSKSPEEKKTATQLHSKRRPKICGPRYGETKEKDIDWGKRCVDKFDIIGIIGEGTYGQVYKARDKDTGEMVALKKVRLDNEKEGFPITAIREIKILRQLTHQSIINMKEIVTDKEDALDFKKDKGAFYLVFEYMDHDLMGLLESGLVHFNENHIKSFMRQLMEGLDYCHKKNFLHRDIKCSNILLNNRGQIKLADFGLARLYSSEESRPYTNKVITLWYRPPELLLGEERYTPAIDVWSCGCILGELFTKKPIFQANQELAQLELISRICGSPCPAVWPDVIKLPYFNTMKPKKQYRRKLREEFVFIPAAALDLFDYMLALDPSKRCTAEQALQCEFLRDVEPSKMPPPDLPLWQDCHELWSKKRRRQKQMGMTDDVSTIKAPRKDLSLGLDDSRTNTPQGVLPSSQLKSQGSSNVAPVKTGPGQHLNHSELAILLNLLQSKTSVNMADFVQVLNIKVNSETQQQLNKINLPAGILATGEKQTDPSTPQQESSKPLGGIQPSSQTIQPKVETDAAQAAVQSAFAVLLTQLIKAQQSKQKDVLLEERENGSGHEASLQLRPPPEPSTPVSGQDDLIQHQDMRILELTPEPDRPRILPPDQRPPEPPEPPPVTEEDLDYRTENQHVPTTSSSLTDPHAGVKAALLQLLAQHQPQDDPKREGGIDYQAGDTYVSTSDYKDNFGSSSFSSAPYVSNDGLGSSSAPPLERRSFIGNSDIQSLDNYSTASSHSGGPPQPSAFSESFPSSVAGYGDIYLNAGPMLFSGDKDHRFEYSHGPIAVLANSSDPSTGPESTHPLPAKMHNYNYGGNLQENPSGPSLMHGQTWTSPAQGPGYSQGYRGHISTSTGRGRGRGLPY
Sequence (O75909 whole entry partner): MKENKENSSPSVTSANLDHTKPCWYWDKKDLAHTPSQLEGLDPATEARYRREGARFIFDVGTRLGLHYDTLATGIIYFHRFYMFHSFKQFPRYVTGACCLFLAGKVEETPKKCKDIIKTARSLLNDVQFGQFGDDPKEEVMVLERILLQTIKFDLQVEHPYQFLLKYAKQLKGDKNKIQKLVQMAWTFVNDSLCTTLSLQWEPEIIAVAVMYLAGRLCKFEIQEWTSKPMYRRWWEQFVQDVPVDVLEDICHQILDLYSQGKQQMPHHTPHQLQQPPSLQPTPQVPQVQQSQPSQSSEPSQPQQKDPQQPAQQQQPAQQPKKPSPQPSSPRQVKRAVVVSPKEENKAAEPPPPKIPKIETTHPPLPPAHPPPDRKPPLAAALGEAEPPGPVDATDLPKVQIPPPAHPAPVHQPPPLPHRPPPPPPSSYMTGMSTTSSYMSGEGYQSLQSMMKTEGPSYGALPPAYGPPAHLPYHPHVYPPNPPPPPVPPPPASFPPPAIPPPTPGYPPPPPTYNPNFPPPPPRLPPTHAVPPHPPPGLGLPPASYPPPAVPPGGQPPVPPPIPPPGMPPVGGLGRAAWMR
ASSAY NOTES: Inhibition of CDK13/Cyclin K kinase activity (ADP-Glo)
Type: biochemical
MEASUREMENT PARAMETERS: mean of multiple measurement series; ATP 10 μM; read-out: CDK13/Cyclin K IC50
EXPERIMENTAL ENDPOINT: pIC50
Schema: pIC50 number; meaning minus log10 of the concentration expressed in molar units.

>  <MOLECULE SMILES>
CN1CCCc2c(-c3nc(N[C@H]4CCC5(CC5)NC4)ncc3C(F)(F)F)c[nH]c2C1=O

>  <TEST SYSTEM>
CDK13/Cyclin K (Homo sapiens)

>  <ENDPOINT RESULT>
7.19

$$$$
>  <MOLECULE SMILES>
CC(C)N1CCCc2c(-c3nc(N[C@H]4CCC(C)(C)NC4)ncc3C(F)(F)F)c[nH]c2C1=O

>  <TEST SYSTEM>
CDK13/Cyclin K (Homo sapiens)

>  <ENDPOINT RESULT>
6.62

$$$$
>  <MOLECULE SMILES>
CN1CCCc2c(-c3nc(N[C@H]4CCC(C)(C)NC4)ncc3C(F)(F)F)c[nH]c2C1=O

>  <TEST SYSTEM>
CDK13/Cyclin K (Homo sapiens)

>  <ENDPOINT RESULT>
7.09

$$$$
>  <MOLECULE SMILES>
CN1CCCc2c(-c3nc(N[C@H]4CCCNC4)ncc3C(F)(F)F)c[nH]c2C1=O

>  <TEST SYSTEM>
CDK13/Cyclin K (Homo sapiens)

>  <ENDPOINT RESULT>
7.70

$$$$
>  <MOLECULE SMILES>
CC1(C)CC[C@H](Nc2ncc(C(F)(F)F)c(-c3c[nH]c4c3CCCN(C3CC3)C4=O)n2)CN1

>  <TEST SYSTEM>
CDK13/Cyclin K (Homo sapiens)

>  <ENDPOINT RESULT>
6.69

$$$$
>  <MOLECULE SMILES>
CC(C)N1CCCc2c(-c3nc(N[C@H]4CCC5(CC5)NC4)ncc3C(F)(F)F)c[nH]c2C1=O

>  <TEST SYSTEM>
CDK13/Cyclin K (Homo sapiens)

>  <ENDPOINT RESULT>
6.37

$$$$
>  <MOLECULE SMILES>
Cn1cc(-n2ccc3c(-c4nc(N[C@H]5CCC(C)(C)NC5)ncc4C(F)(F)F)c[nH]c3c2=O)cn1

>  <TEST SYSTEM>
CDK13/Cyclin K (Homo sapiens)

>  <ENDPOINT RESULT>
7.60

$$$$

The record that follows has no pIC50 shown yet.
QUERY: Requested read-out: pIC50. Entry: O=C1c2[nH]cc(-c3nc(N[C@H]4CCC5(CC5)NC4)ncc3C(F)(F)F)c2CCCN1C1CC1
RESULT: 6.82

====

IC50 listing for selected compounds.
TEST SYSTEM: CDK7/Cyclin H/MNAT1 (Homo sapiens, UniProt P50613)
Sequence (P50613 whole entry): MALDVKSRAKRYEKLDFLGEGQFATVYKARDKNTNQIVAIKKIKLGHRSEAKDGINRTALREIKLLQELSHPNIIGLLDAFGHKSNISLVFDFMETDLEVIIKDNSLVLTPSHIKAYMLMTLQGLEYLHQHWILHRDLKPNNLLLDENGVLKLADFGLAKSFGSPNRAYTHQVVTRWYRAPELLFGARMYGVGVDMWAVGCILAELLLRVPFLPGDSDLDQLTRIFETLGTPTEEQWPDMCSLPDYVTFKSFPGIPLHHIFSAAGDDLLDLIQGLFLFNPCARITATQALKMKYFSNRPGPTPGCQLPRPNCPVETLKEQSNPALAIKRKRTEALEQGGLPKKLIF
Sequence (P51946 whole entry partner): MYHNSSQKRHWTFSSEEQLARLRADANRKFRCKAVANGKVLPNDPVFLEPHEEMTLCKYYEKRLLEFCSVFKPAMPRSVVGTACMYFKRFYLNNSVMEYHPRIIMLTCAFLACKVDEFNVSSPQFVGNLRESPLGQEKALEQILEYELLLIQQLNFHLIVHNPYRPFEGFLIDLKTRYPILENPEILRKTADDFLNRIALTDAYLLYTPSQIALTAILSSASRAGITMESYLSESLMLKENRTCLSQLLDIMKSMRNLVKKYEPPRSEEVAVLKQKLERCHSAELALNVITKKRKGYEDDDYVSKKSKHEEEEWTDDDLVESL
Sequence (P51948 whole entry partner): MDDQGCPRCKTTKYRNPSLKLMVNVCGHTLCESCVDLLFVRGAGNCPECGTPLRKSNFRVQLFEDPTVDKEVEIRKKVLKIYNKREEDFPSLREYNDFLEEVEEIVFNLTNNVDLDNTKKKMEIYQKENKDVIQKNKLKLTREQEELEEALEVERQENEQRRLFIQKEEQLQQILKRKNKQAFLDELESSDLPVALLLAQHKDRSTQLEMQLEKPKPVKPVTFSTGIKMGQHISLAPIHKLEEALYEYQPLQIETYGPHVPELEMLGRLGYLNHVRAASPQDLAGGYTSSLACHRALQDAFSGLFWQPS
ASSAY NOTES: Inhibition of CDK7/Cyclin H/MNAT1 kinase activity (ADP-Glo)
Type: biochemical
MEASUREMENT PARAMETERS: mean value from several measurements; read-out: IC50 CDK7/Cyclin H/MNAT

Here's what some known entries look like.
>  <MOLECULE SMILES>
Cn1cc(NC(=O)c2cc(-c3nc(N[C@H]4CCCNC4)ncc3C(F)(F)F)c[nH]2)cn1

>  <ENDPOINT RESULT>
5 to 50 nM

$$$$
>  <MOLECULE SMILES>
Cn1cc(-n2ccc3c(-c4nc(N[C@H]5CCCNC5)ncc4C(F)(F)F)c[nH]c3c2=O)ccc1=O

>  <ENDPOINT RESULT>
< 5 nM

$$$$
>  <MOLECULE SMILES>
FC(F)(F)c1cnc(N[C@H]2CCCNC2)nc1Cc1ccccc1

>  <ENDPOINT RESULT>
50 to 200 nM

$$$$
>  <MOLECULE SMILES>
Cn1cc(-n2ccc3c(-c4nc(N[C@H]5CCCNC5)ncc4C(F)(F)F)c[nH]c3c2=O)cn1

>  <ENDPOINT RESULT>
< 5 nM

$$$$
>  <MOLECULE SMILES>
O=c1c2[nH]cc(-c3nc(N[C@H]4CCCNC4)ncc3C(F)(F)F)c2ccn1-c1nccs1

>  <ENDPOINT RESULT>
< 5 nM

$$$$

QUERY: Requested read-out: IC50. Entry: CN(C(=O)c1cc(-c2nc(N[C@H]3CCCNC3)ncc2C(F)(F)F)c[nH]1)C1CC1
RESULT: < 5 nM

QUERY: Another compound: FC(F)(F)c1cnc(N[C@H]2CCCNC2)nc1-n1cnc2ccccc21
RESULT: 5 to 50 nM

QUERY: Another compound: Cc1ccc(P(C)(C)=O)c(Nc2nc(N[C@H]3CCCNC3)ncc2C(F)(F)F)c1
RESULT: 5 to 50 nM

====

ASSAY NOTES: General cytotoxicity on primary differentiated HepaRG cells (72 h)
Assay type: cell-based
MEASUREMENT PARAMETERS: human, general toxicity, mean value from several measurements
EXPERIMENTAL ENDPOINT: CC50 at 72 h

>  <COMPOUND>
CC1(C)CC[C@H](Nc2ncc(C(F)(F)F)c(-c3c[nH]c4c3CCCN(C3CCC3)C4=O)n2)CN1

>  <ENDPOINT RESULT>
> 2000 nM

$$$$

QUERY: Requested read-out: CC50 at 72 h. Entry: N#Cc1ccc(NC(=O)c2cc(-c3nc(N[C@H]4CCCNC4)ncc3C(F)(F)F)c[nH]2)cc1
RESULT: 500 to 2000 nM

QUERY: Another compound: FC(F)(F)c1cnc(N[C@H]2CCCNC2)nc1Cc1ccccc1
RESULT: > 2000 nM

QUERY: Another compound: Cc1nc(-c2cc(-c3nc(N[C@H]4CCCNC4)ncc3C(F)(F)F)c[nH]2)no1
RESULT: 100 to 500 nM

====

ASSAY NOTES: Pharmacokinetics in mice plasma following intravenous administration
Type: in vivo, CD-1 mice
MEASUREMENT PARAMETERS: male, CD-1, mouse, dose 2 mg/kg
AUC(0-t) listing for selected compounds.

Here's what some known entries look like.
>  <MOLECULE SMILES>
CN1CCCc2c(-c3nc(N[C@H]4CCC(C)(C)NC4)ncc3C(F)(F)F)c[nH]c2C1=O

>  <ENDPOINT RESULT>
314 ng·h/mL

$$$$
>  <MOLECULE SMILES>
CC(C)N1CCCc2c(-c3nc(N[C@H]4CCC(C)(C)NC4)ncc3C(F)(F)F)c[nH]c2C1=O

>  <ENDPOINT RESULT>
1140 ng·h/mL

$$$$

QUERY: Requested read-out: AUC(0-t). Entry: O=C1c2[nH]cc(-c3nc(N[C@H]4CCC5(CC5)NC4)ncc3C(F)(F)F)c2CCCN1C1CC1
RESULT: 1380 ng·h/mL

QUERY: Another compound: CC1(C)CC[C@H](Nc2ncc(C(F)(F)F)c(-c3c[nH]c4c3CCCN(C3CC3)C4=O)n2)CN1
RESULT: 691 ng·h/mL

====

ASSAY NOTES: Pharmacokinetics in mice plasma following oral administration
Assay type: in vivo, CD-1 mice
MEASUREMENT PARAMETERS: absolute bioavailability, mice, dose 10 mg/kg
F listing for selected molecules.
Number in %, nothing else.

Here's what some known entries look like.
>  <MOLECULE SMILES>
CC(C)N1CCCc2c(-c3nc(N[C@H]4CCC5(CC5)NC4)ncc3C(F)(F)F)c[nH]c2C1=O

>  <F (%)>
85.8

$$$$
>  <MOLECULE SMILES>
CC1(C)CC[C@H](Nc2ncc(C(F)(F)F)c(-c3c[nH]c4c3CCCN(C3CC3)C4=O)n2)CN1

>  <F (%)>
102

$$$$
>  <MOLECULE SMILES>
CC(C)N1CCCc2c(-c3nc(N[C@H]4CCC(C)(C)NC4)ncc3C(F)(F)F)c[nH]c2C1=O

>  <F (%)>
102

$$$$
>  <MOLECULE SMILES>
O=C1c2[nH]cc(-c3nc(N[C@H]4CCC5(CC5)NC4)ncc3C(F)(F)F)c2CCCN1C1CC1

>  <F (%)>
116

$$$$

QUERY: Requested read-out: F. Entry: CN1CCCc2c(-c3nc(N[C@H]4CCC(C)(C)NC4)ncc3C(F)(F)F)c[nH]c2C1=O
RESULT: 72.7

====

Tmax listing for selected compounds.
ASSAY NOTES: Blood-brain barrier permeability: PK in mice brain homogenate following oral administration
Type: in vivo, CD-1 mice
MEASUREMENT PARAMETERS: male, CD-1, mouse, mice brain homogenate, dose 10 mg/kg
Description: The ability of substances to penetrate the blood-brain barrier and enter the central nervous system (mouse brain) was evaluated by the ratio of their areas under pharmacokinetic curves in […] and blood plasma following oral administration, characterizing tissue bioavailability to the […], and expressed as the AUCbrain/AUCplasma coefficient. Pharmacokinetic studies of the compounds were carried out on CD-1 mice, males, aged about 8 weeks, weighing 16-29 g. […]

Here's what some known entries look like.
>  <MOLECULE SMILES>
CC(C)N1CCCc2c(-c3nc(N[C@H]4CCC5(CC5)NC4)ncc3C(F)(F)F)c[nH]c2C1=O

>  <Tmax>
2 h

$$$$
>  <MOLECULE SMILES>
CC(C)N1CCCc2c(-c3nc(N[C@H]4CCC(C)(C)NC4)ncc3C(F)(F)F)c[nH]c2C1=O

>  <Tmax>
0.5 h

$$$$
>  <MOLECULE SMILES>
O=C1c2[nH]cc(-c3nc(N[C@H]4CCC5(CC5)NC4)ncc3C(F)(F)F)c2CCCN1C1CC1

>  <Tmax>
0.5 h

$$$$

The record that follows has no Tmax shown yet.
QUERY: Requested read-out: Tmax. Entry: CC1(C)CC[C@H](Nc2ncc(C(F)(F)F)c(-c3c[nH]c4c3CCCN(C3CC3)C4=O)n2)CN1
RESULT: 6 h
